Test: soluble fraction after stress (log2 fold change); higher = more stays soluble; pooled small domains, quantitative proteomics
Conditions: stress: 50 degC
Label rule met when soluble fraction (log2) is at or above 0.004; anything below gets rule not met.

INSERT INTO assay_data (primary_sequence, assigned_class) VALUES
  ('HMAHSWEAIRVKLQQIIDEEDKTKPLNDDQIKEKLAEAGIPNLARRTVAKYRKLLNIPTARFRKR', 'rule not met'),
  ('HMLKNYATPEQRAQLDMLKDKGIIGENELMQLGKYPSQDKASEVLENHADAVKMLDSDEISNRAEAIRSHD', 'rule met'),
  ('HMLTNNYKNDKALRFAKNHGIHESNILKLVSLYENAPEKGFNAQSIAELLGITPRSASRILVKLLQHNLIR', 'rule not met'),
  ('HMENPPISVVIPPSFRGQRIDKALGSLIGDYSRSKIQQWLQSGLVQSAGEPLLPKYTVLGNEQILIAVPS', 'rule not met'),
  ('HMGTYSKQDLLQLIGRYPDGIGKREINLAFSKGTKIRNLLNIELNELLNERLITLSQGGLYIKP', 'rule not met');

Is soluble fraction (log2) for HMGARWPIQDRPLTATEAAAVRRMYAGGLPHGRSKNSVITEVWGDLSNKPKRLDWLNQALEGGA at or above 0.004? rule met

Check HMNELIGVEQLQDLREAIADHGFAEQRVLNWLYQATKGQVSRLEQLPLPMLTTLHKKLGQWADAEAAASSA too. rule not met

Another sequence to check: HMPSSFLVKVTADALNIRSGPGVANRITGTIKDKGTYTIVDTKDDWGKLKSGVGWIHLGYTKRLD rule not met

###

Assay: soluble fraction after stress (log2 fold change); higher = more stays soluble; pooled small domains, quantitative proteomics
Conditions: stress: 50 degC
Quantity: soluble fraction (log2)
Please give only the number in your answer, with no unit.

Please review the entries below; each comes with its answer.
INSERT INTO measurements (primary_sequence, measured) VALUES
  ('HMDLATQHAAKVNAAILAARRFEREGSWRQVAAKYSEALQLMPGNEQASRGYQQAMAMLDERD', 0.0786),
  ('HMETKVIVPKVTGMNSKSAINYLSARGLKYKAVPADSGKSFHVVDQYPKSGTKVSPHSTVYLYS', 0.077),
  ('HMKNISSEEDREKALSLGITQEFIDNKGRYFITVPNKPSNFKEQALNIQKEISEQIDTVINKRFEF', -0.0173),
  ('HMTAPQAQDYARVPDVLGLDMRESAQALRLDGFEMNAQGDGLAARQSPIGGSYAPEGTQVLVTFEM', 0.102),
  ('HMRSKTSYAVWTPIQIDAGSQMQALQSKGFNTVLMEGGISVGIRSDKAQAQALLNRLQGAGFTGQLREVN', -0.183),
  ('HMSVFTDIYHQADHETKLMLIHEIKIVGDEKEFRLLKSIIDSTSNDLSKEANDALNAIKIRLALSK', -2.49);

Data request, read-out soluble fraction (log2), for HMINSFDYLQAIFTELMKSQSKMTNQDAAKRLFMQGKVAVSNRDREGLRMVLAQLVTLLPKEELGGLSTVS 0.0921

Then this sequence: HMEDKIIVTVPGEYHLERIDRFLAANLEEDLSRSLIQRYIRENLITVNGEAVRANYKVKTDDEILITFPQ -0.603

What would you report for HMNKPTFNIFNNRLTFPFKGDITIYSLDGKRVFSAYNESSVNLSFLNRGSYISEFNNSRSVLIL ? -1.39

###

Experiment: soluble fraction after stress (log2 fold change); higher = more stays soluble; pooled small domains, quantitative proteomics
Conditions: stress: 50 degC
Please mark 1 (yes) if the recorded soluble fraction (log2) is equal to or greater than -0.09, and 0 (no) if it falls below.

INSERT INTO measurements (primary_sequence, assigned_class) VALUES
  ('HMLTPSRVLPYLFEDSFFIDTLSLEKDQVVGFLEYIDERLPPQDLMNKSKEFELIDYLINESEAYLSQ', '1 (yes)'),
  ('HMVVVMEKNASSAEIEQVQERLRQAGFKIHLSQGVERTIIGAIGDRSQVDLGFLEALPGVEKVVPIMK', '1 (yes)'),
  ('HMVEGTVKWFNDEKGFGFIEQEGGKDVFVHFSAINGSGRRTLHEGQRVTMEVTQGQKGPQAENVNP', '1 (yes)');

Entry HMNTIIHPIRLAYVDSGSIKSMAEQAEIDVKILTSEANSQIFWAIGDEKQIDRLYNLISQVDIIQNK : is its soluble fraction (log2) no less than -0.09? 0 (no)

Similarly, HMPQFDRQAFGQRLRLLRDYREMTQQQVANFLNVDRSTYSYYENGKTEPSITVLMRMAELFSVTLDSLLNM ? 0 (no)

Next entry: HMWPQIAGFADRFGLSDTERRIVTLMSHGRSRKIIASTLGYSQNTIRNYTRNIYAKAGVHSKQELLDLLDP 0 (no)

How about HMQARLPFSFAKRHGVILLAATGEGQSDVIYKSGFDIGALAEVRRFVAGEIALKEVDGPSFDRQLTLTYQN ? 0 (no)

One more sequence: HMAHKYYSIMRPVSIGTFPDNGTILGIVNFDTRQMVESIGKMAWGYINYGKPLTEKQISDYELVAE 0 (no)

Same question, HMQISYDVPNLIGKSYEEVMTDPSILGEHFTVVLGETKTDEDTDAGVILHQDPAADSKVQDEVTPITVTVS this time 1 (yes)

Again, but for HMELDFNSVYRQLNHEQKQAYQSIKSVLEQKISGSELDKKLKQAQQAFVAKFKENPNFEVPK 1 (yes)

###

Assay: soluble fraction after stress (log2 fold change); higher = more stays soluble; pooled small domains, quantitative proteomics
Conditions: stress: 50 degC
Label TRUE when soluble fraction (log2) >= 0.07; otherwise FALSE.

INSERT INTO assay_data (primary_sequence, assigned_class) VALUES
  ('HMTNTWNNIVERNDLFFKKFTNTPFNGKIETYWPNGNLKETGIITDGKKDNLWEYYYENGNPKEVEF', 'FALSE'),
  ('HMHNSQTIIDNIKRIANEQNISLSKLAVISGLGKNTITSMTAKTNIKIETLTAIAKSLNVSIHDLTGE', 'FALSE');

Has HMSATPQRMSIINELDSARKNLSAYDLRDSLKDKGHSFNISTIYRVLSFWIDVGVVHKMDSSNTYL a recorded soluble fraction (log2) greater than or equal to 0.07? TRUE

Same question for HMGEPVASSREVAKRFGKEHKHVLAAIRQILVAENSATKFFHETAFEYRGQRFPEYLMNRDGFALLAMGF please. FALSE

Now give it for HMFDGTLSIYPNPSKGIFNLDLLNVKDGEYTITVDNLLGQEVYSEIRNVINSSSKTLDLSNLTKGV too. FALSE

Now give it for HMNNENELSSIISKVLEENPAEKERFLNGEKKLAGFFMGKIMKATKGTADPKKAAQLLNEIL too. TRUE

Also HMFAGEWKQDASGWWYQNDDGSFTRNGWQNISGKQYYFNENGYMLHDTTTPDGKQVGSDGSLV , if possible. FALSE

Next: HMLDSPHDDLNRKIVQMLQNDGRLPYKDIAEVLSVSEGTVRNRVQRMRDAGMLNIVALIDPMAI TRUE

###

Test: soluble fraction after stress (log2 fold change); higher = more stays soluble; pooled small domains, quantitative proteomics
Conditions: stress: 50 degC
Use 0.1 as the dividing line for soluble fraction (log2), with the line itself on the yes (1) side and lower values as no (0).

INSERT INTO measurements (primary_sequence, assigned_class) VALUES
  ('HMQQAVTMQKPGRLLRNADGNGGAVRDLDVGMMLYPTGNRSELMWEVDDELGNRGWVNSTLFGLS', 'no (0)');

Reported soluble fraction (log2) at or above 0.1? HMTELNNTQRAAVLLLALDEDSAAEVFKHLSAREVQEVSQEMAKLGNISHDQMRQVLDDFYDESEQF no (0)

Subsequent entry: HMDPLASLTPREREVLSLMAQGLSNLAVAERLVVSAGAVEKHISSIFTKLDLAPSEHEHRRVLAVLRYVAG no (0)

Same again, this time with HMELNEIEFENLKESIIIHLEKESLSPHELVKHIQTIHPDKVTAVIQWMLENGFIKTDAGGQLTLVSK yes (1)

###

Assay: soluble fraction after stress (log2 fold change); higher = more stays soluble; pooled small domains, quantitative proteomics
Conditions: stress: 50 degC
Overview of reported soluble fraction (log2) across a group of sequences:
Enter the number alone.

Guide cases for soluble fraction (log2), answers given:
INSERT INTO assay_data (primary_sequence, measured) VALUES
  ('HMIPTTELAERLGTTKVANMIMLGALIKASGIISFDDMIKNLGELLGEGKAKLIKLNKEALEVGFN', -0.0172),
  ('HMSHRVGDVVELTAVRMNDQGVFLDAGTGNTSDDILLHKHQMTSPVSVGDKVKVQLYLDAKNRITASMKL', -0.000204),
  ('HMKIKKIWFDGDYIYGMDERNNTYRQSLLWYSKLRNASAEERERYTFSTIGIHWRELDEDVSFESF', -3.14);

Endpoint output: soluble fraction (log2) of HMKYRPGDVVTLRVARMGEMGAFLDAGTGNTNDDILLHKMQQTEEIKAGQDVKVYLYLDPNRRLTASMKL . Value? -0.108

What would you report for HMLDEPPVSQTLTTYDREHMALYLRLLDSARDGADWREAVQILFGLDPTRDPLRSRHVHDTHLARARWM ? -0.131

Now consider HMSWEDSLLKQAREIIDMYPQKRSAVGPLLHLAQSKDGYISDDSISVISKLVGITEVQLKSVSTFYSMYK . -1.59
